src = the supplement of paper PMC10681739

- Experimental Target: ETS1 (UniProt P14921)
- Sequence: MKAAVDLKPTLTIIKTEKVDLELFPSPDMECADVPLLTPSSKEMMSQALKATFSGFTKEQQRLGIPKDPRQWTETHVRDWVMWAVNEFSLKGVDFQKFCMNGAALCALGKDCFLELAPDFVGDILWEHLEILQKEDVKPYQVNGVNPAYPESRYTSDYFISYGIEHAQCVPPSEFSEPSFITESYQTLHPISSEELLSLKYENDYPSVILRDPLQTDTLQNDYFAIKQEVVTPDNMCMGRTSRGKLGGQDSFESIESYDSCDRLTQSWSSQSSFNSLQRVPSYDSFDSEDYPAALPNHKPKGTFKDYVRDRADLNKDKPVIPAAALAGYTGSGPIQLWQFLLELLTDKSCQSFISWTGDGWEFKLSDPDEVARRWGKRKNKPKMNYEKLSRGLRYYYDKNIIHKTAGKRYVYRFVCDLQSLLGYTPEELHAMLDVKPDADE
- Assay Notes: ETS1 binding intensity (PBM fluorescence), ETS1 alone (arbitrary fluorescence units); higher = stronger binding
- Measurement Context: ETS1 concentration 1 nM; RUNX1 concentration 0 nM
ETS1 binding intensity by entry:
Recorded Metric: ETS1 binding intensity

>>> measured_number("AGGCCCACCTGCTGCGGATGTGGTCTCTGTGTGTGC")
2340
>>> measured_number("GTAGGGAAGACGGGATGTGGGTTTTCAGCCGTGGCC")
1220
>>> measured_number("GAGCCCAACCGGCATCCGTCGCGGTTGGACGTGGGC")
343
>>> measured_number("CTTACAGTCACAACAGGATGTGGTTTGACATTTACT")
6780
>>> measured_number("CTCACTTCCCCGGCAGCTCCCTCGCCCCGACCGCAG")
406
>>> measured_number("CTGTGACACGTGCGGAAGCTGTGGTAAGTGCATCCA")
1130
>>> measured_number("GGTTTCACTTCCTGCGTTGGGCCTTGTGGCCTCCTT")
783
>>> measured_number("AGGTTTTGAAAGAGGAAACCACATACCCGAAAACCA")
1120
>>> measured_number("TCCACATCCTGCTCCTCGGGTTTGCGGCGAGGACTC")
593

* * *

- Experimental Target: RUNX1 (UniProt Q01196)
- Sequence (Q01196 whole entry): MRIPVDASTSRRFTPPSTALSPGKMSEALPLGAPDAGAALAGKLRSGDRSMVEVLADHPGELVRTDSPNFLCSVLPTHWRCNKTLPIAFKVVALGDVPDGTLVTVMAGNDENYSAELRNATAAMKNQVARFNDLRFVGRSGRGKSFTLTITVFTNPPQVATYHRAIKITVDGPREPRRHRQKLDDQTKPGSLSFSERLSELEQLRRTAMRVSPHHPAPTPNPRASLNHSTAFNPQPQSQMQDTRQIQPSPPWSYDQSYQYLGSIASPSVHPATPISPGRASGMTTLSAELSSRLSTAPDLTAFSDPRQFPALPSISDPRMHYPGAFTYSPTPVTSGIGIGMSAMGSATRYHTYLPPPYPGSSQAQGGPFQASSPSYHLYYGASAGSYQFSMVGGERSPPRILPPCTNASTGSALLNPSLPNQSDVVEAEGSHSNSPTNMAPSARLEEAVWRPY
- Assay Notes: RUNX1 binding intensity (PBM fluorescence), RUNX1 alone (arbitrary fluorescence units); higher = stronger binding
- Measurement Context: RUNX1 concentration 2 nM; ETS1 concentration 0 nM
Mark t for reported RUNX1 binding intensity of 1000 or greater; mark f for anything smaller.

>>> class("GCCGTCACTTCCGTCATTCAAACCGCCCGCCAATGG")
"t"
>>> class("TCTGTGACTACGCGGATGTTGTGGGCGGCTACATGC")
"f"
>>> class("ATGTGCCCAAAGGATGTCACCGCAAAGATCATAGGA")
"t"
>>> class("CTCTAGAGGCTTCCTGCCCAACCACCAAGAAAAAGC")
"f"
>>> class("TCTTCAGGCGTCTTTCCGGTGGTGGTCGTTTTTGCT")
"f"
>>> class("GATACCCAGCCAGCGGAAGTGCGGTTAACTGCCCGA")
"t"
>>> class("GGCATTCACTTCCGGTCTGGGGCCTGCGGCGGCGGC")
"f"
>>> class("TTGTCAGATGGCGAAGGAAACCGCGAAATTCGCCAT")
"t"
>>> class("GTGGCTATGGGAAGTGGGGTGCGGTTTCTGCCGGGG")
"t"
>>> class("TGTGGAGACAGGAAGCACTAACCTCAAACCTCTTTC")
"f"
>>> class("ATGCTAGAAAGCAGGAAGCCACAGACACGCCCCAAC")
"f"
>>> class("TTGAATATGAAAGGAAGTGGTTAGGTGATGTGTTCT")
"f"

* * *

ETS1 binding intensity reference
- Experimental Target: ETS1 (UniProt P14921)
- Sequence: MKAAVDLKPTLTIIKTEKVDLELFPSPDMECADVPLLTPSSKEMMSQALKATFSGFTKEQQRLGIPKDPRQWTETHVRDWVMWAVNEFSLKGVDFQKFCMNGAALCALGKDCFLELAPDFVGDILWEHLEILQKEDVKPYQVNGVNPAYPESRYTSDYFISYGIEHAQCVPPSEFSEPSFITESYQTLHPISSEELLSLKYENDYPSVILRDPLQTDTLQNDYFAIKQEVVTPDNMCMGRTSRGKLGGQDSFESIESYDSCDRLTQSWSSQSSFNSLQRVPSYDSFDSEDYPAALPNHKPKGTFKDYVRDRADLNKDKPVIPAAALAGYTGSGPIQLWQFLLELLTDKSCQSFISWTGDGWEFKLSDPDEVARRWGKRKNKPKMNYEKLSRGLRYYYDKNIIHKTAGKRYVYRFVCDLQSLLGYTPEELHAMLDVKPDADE
- Assay Notes: ETS1 binding intensity (PBM fluorescence) in presence of RUNX1, normalised to ETS1-only experiment (arbitrary fluorescence units); higher = stronger binding
- Measurement Context: ETS1 concentration 1 nM; RUNX1 concentration 25 nM
Recorded Metric: ETS1 binding intensity

>>> measured_number("CTGCCCAGCCACTTCCTGCCCAACCACAGACTGACA")
4910
>>> measured_number("AACAGCTTCCGGCACGGGGGCTGTGGTTGTGTTGGA")
1130
>>> measured_number("AAAACGCGGAAATACGGTGGCTGCGGCCCGCGGGCA")
573
>>> measured_number("CACCCATAGCACCCCGGAAACCACCTCCACCACCTG")
2240
>>> measured_number("CCAACTTTTGAGGGATGTGGTTACGTTTTCTAGATC")
1440
>>> measured_number("CCGGGACCGGAAGAGGGAGCCGTGGTTGCTGGAACT")
4030
>>> measured_number("GGTTTAACGTTTCCGGTTTGTGGCTAGTTTCTTGTC")
12500

* * *

- Experimental Target: ETS1 (UniProt P14921)
- Sequence: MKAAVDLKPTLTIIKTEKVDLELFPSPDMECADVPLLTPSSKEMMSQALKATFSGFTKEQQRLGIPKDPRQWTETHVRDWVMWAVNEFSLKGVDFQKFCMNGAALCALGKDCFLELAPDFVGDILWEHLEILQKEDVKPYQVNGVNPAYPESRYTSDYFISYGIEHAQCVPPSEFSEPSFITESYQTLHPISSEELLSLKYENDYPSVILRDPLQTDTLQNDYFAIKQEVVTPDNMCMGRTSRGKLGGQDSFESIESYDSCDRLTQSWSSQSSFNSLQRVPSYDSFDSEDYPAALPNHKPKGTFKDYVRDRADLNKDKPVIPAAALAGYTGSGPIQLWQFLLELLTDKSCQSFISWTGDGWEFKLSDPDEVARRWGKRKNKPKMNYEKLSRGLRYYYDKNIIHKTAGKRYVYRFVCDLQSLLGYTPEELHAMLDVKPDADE
- Assay Notes: ETS1 binding intensity (PBM fluorescence) in presence of RUNX1, normalised to ETS1-only experiment (arbitrary fluorescence units); higher = stronger binding
- Measurement Context: ETS1 concentration 1 nM; RUNX1 concentration 25 nM
Decision: ETS1 binding intensity >= 900 yields 1, all other cases yield -1.

>>> class("CTCTTTCACAAAGGAAATGGAAACCACAAAGAGGAC")
1
>>> class("TGGACGTAACACTCAGGAAGTGGTCAACCTTGCTGC")
1
>>> class("TAGGCAGGCAGGATGTGCCTATAAGCCACATGAATG")
1
>>> class("CTGTGAGGCGGAAGTGGCGGGCTCTGTGGGCGCAAG")
1
>>> class("CTGTTCTCATCCGCCCGCTCTGAGTCACCCACACCT")
-1
>>> class("GTCTTCCTTCCTGAGAATCTTAACCACCAGCTTGCC")
-1
>>> class("GGAGCAAGGATGACAGGATGTGGCTTAGGGGGAGGC")
1
>>> class("GACAGGATACAAGAATTCCGCGGACTGCCGCAGTCG")
-1

* * *

- Experimental Target: ETS1 (UniProt P14921)
- Sequence: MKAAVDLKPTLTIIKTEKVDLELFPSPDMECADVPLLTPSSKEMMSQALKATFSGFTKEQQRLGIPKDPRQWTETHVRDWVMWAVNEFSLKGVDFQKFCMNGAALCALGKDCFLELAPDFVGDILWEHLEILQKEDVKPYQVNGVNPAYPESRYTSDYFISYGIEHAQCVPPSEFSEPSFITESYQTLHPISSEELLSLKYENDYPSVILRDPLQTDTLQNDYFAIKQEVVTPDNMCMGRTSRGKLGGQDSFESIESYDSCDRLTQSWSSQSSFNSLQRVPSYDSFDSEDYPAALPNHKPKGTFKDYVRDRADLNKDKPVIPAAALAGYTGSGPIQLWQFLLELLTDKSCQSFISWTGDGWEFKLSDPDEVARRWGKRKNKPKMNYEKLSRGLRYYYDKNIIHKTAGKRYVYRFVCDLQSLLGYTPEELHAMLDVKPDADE
- Assay Notes: TF binding intensity (PBM fluorescence), negative control probe (arbitrary fluorescence units); higher = stronger binding
Form field: TF binding intensity (one value per entry).
Recorded Metric: TF binding intensity

>>> measured_number("ATACATACCTTTCACCCTCCATTGTGTGAGGCCCAG (protein concentration 10 nM)")
114
>>> measured_number("CCTTTGTTAGTGATTTGTGGTAGCTAATGTCGTAAT (protein concentration 1 nM)")
548
>>> measured_number("AAATAAATTCTTGTCTGGGGCCGACATCTGTGTGGA (protein concentration 10 nM)")
119
>>> measured_number("ACACATCAAAATGTCTGTGGTTTTTATGAAAAATAG (protein concentration 1 nM)")
510
>>> measured_number("GGCATCTACCTCCCAGGAGCAAGCGGGAGACAGCCC (protein concentration 10 nM)")
134
>>> measured_number("GTTTTGCAACTCTTATTCCAAGTGGACACCCAGAAA (protein concentration 10 nM)")
140
>>> measured_number("GCTATTTTCTCTGCTTGAACATACCGTGTACACACA (protein concentration 10 nM)")
178
>>> measured_number("CAGTGCAGCTGTTTGCCATGTGGGCCCACACCACTG (protein concentration 10 nM)")
126
>>> measured_number("AGGCATAACAGAAAAACCTCAACTTAAATAGTGCTG (protein concentration 1 nM)")
626
>>> measured_number("AGGCCTGTAGCATTTAGCTGGCCTCTGAGGAATAAC (protein concentration 10 nM)")
101
>>> measured_number("GCTTTTTTTTTCTGTTGTGGGAGAAAGATGAGAGTC (protein concentration 1 nM)")
535
>>> measured_number("TGATTTCTTAAGCCAACCTCAAAAAAAAAAAAAGAG (protein concentration 1 nM)")
596
>>> measured_number("CTTTCTAAAGAGAAAAGCTCCTTTGTACCACGTGTC (protein concentration 10 nM)")
103
>>> measured_number("CCACCGAGTGTTCTCGTTGCTCCACCGTAGCATCAG (protein concentration 10 nM)")
124
>>> measured_number("AATATCTACAGGGCTCACTCTCCCATGCTCTTCAGG (protein concentration 10 nM)")
108
>>> measured_number("ACTCTAGTTTGTGATTTTTAAAACGTTTGAAAGCCA (protein concentration 10 nM)")
124
>>> measured_number("TGACCGGCAGGCCCGAAGCCCCCTGGGATGCCTGGC (protein concentration 10 nM)")
105
>>> measured_number("AAATTCTGTAACCAGTGCTCTTGAGCTGCTTGCTGG (protein concentration 10 nM)")
102
>>> measured_number("AAGTCCCTCCTCTAAACCACTTTGATGAGGACCAAA (protein concentration 1 nM)")
387
>>> measured_number("CATTAGATTCTCATAAGGAGCATAACCTAGATCCCT (protein concentration 10 nM)")
104
